- PROTOCOL_TEXT: Mean residence time (0 to infinity) in Sprague-Dawley rat at 30 mg/kg, po measured up to 24 hrs
- Type: ADME, organism-based
- CONDITION_SET: in vivo
TEST_READOUT: MRT inf (h)

> print(dat)
                            chemical.smiles  meas.value
1  CC#CCn1c(N2CCC[C@@H](N)C2)nc2c1c(=O)n(CCCN1CCN(c3nc(-c4ccccc4)no3)CC1)c(=O)n2C.Cl        2.22
2  CC#CCn1c(N2CCC[C@@H](N)C2)nc2c1c(=O)n(CCCN1CCN(c3nc(-c4ccccc4)no3)CC1)c(=O)n2C        2.11

----------
- TESTED_ON: Glucose-dependent insulinotropic receptor (Homo sapiens) (UniProt Q8TDV5)
- Sequence (Q8TDV5 whole entry, the tested form may be a part): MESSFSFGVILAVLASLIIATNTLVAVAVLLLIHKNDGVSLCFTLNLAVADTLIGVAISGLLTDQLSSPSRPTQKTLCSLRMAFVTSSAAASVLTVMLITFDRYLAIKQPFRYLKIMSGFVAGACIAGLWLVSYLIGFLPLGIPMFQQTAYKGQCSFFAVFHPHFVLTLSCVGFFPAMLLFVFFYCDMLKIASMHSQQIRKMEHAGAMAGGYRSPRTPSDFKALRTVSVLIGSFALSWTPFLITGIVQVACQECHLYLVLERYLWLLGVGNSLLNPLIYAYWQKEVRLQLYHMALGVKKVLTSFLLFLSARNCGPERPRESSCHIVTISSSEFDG
- PROTOCOL_TEXT: Agonist activity at CREB-LBD and Gal4-DBD fused recombinant human GPR119 expressed in HEK293 cells at 1 uM by firefly luciferase assay relative to AR231453
- Assay type: functional, cell-based
- CONDITION_SET: filed as agonist
TEST_READOUT: Activity (%)

> print(dat)
                            chemical.smiles  test.readout  meas.value
1  CC#CCn1c(N2CCC[C@@H](N)C2)nc2c1c(=O)n(CCCN1CCN(c3ncc(C(F)(F)F)cn3)CC1)c(=O)n2C      Activity          90
2  CC#CCn1c(N2CCC[C@@H](N)C2)nc2c1c(=O)n(CCCN1CCN(c3ncc(CCC)cn3)CC1)c(=O)n2C      Activity          84
3  CC#CCn1c(N2CCC[C@@H](N)C2)nc2c1c(=O)n(CCCN1CCN(c3nc(-c4ccccc4)cs3)CC1)c(=O)n2C      Activity          56
4  CC#CCn1c(N2CCC[C@@H](N)C2)nc2c1c(=O)n(CCCN1CCN(c3nc(-c4ccccc4)no3)CC1)c(=O)n2C      Activity          58

----------
- PROTOCOL_TEXT: Plasma protein binding in rat at 5 uM after 5 hrs by LC-MS/MS based equilibrium dialysis method
- Assay type: ADME, cell-free
- CONDITION_SET: read-out: PPB (converted)
TEST_READOUT: fraction unbound at 5 h, 5 µM

> print(dat)
                            chemical.smiles                   test.readout  meas.value
1  CC#CCn1c(N2CCC[C@@H](N)C2)nc2c1c(=O)n(CCCN1CCN(c3nc(-c4ccccc4)no3)CC1)c(=O)n2C.Cl  fraction unbound at 5 h, 5 µM       0.039

----------
- PROTOCOL_TEXT: AUC(0 to infinity) in ICR mouse plasma at 2 mg/kg, iv measured up to 24 hrs
- Type: ADME, organism-based
- Set-up: route intravenous, dose 2 mg/kg, time <=24
TEST_READOUT: AUC(0-inf) (ng·h/mL)

> print(dat)
                            chemical.smiles  test.readout  meas.value
1  CC#CCn1c(N2CCC[C@@H](N)C2)nc2c1c(=O)n(CCCN1CCN(c3nc(-c4ccccc4)no3)CC1)c(=O)n2C    AUC(0-inf)         261

----------
- PROTOCOL_TEXT: AUC(0 to t) in Sprague-Dawley rat plasma at 3 mg/kg, iv measured up to 24 hrs
- Format: ADME, organism-based
- Design: route intravenous, dose 3 mg/kg, time <=24
TEST_READOUT: AUC(0-t) at 24 h (ng·h/mL)

> print(dat)
                            chemical.smiles      test.readout  result.units  meas.value
1  CC#CCn1c(N2CCC[C@@H](N)C2)nc2c1c(=O)n(CCCN1CCN(c3nc(-c4ccccc4)no3)CC1)c(=O)n2C.Cl  AUC(0-t) at 24 h       ng·h/mL         147

----------
- PROTOCOL_TEXT: AUC(0 to t) in Sprague-Dawley rat plasma at 30 mg/kg, po measured up to 24 hrs
- Format: ADME, organism-based
- Parameters: route oral, dose 30 mg/kg, time <=24
Documented AUC(0-t) at 24 h across a set of molecules
TEST_READOUT: AUC(0-t) at 24 h (ng·h/mL)

> print(dat)
                            chemical.smiles      test.readout  meas.value
1  CC#CCn1c(N2CCC[C@@H](N)C2)nc2c1c(=O)n(CCCN1CCN(c3nc(-c4ccccc4)no3)CC1)c(=O)n2C  AUC(0-t) at 24 h         468
2  CC#CCn1c(N2CCC[C@@H](N)C2)nc2c1c(=O)n(CCCN1CCN(c3nc(-c4ccccc4)no3)CC1)c(=O)n2C.Cl  AUC(0-t) at 24 h         623

----------
- PROTOCOL_TEXT: Elimination half-life in Sprague-Dawley rat plasma at 3 mg/kg, iv measured up to 24 hrs
- Format: ADME, organism-based
- CONDITION_SET: read-out: beta t1/2 (converted)
TEST_READOUT: half-life (min)

> print(dat)
                            chemical.smiles  test.readout  meas.value
1  CC#CCn1c(N2CCC[C@@H](N)C2)nc2c1c(=O)n(CCCN1CCN(c3nc(-c4ccccc4)no3)CC1)c(=O)n2C.Cl     half-life        37.8

----------
- PROTOCOL_TEXT: Metabolic stability in ICR/CD-1 mouse hepatocytes assessed as parent compound remaining incubated for 30 mins by LC-MS/MS analysis
- Assay type: ADME, cell-based, Hepatocyte
- CONDITION_SET: read-out: Stabilty
// reported remaining at 0.5 h per item
TEST_READOUT: remaining at 0.5 h

> print(dat)
                            chemical.smiles  meas.value
1  CC#CCn1c(N2CCC[C@@H](N)C2)nc2c1c(=O)n(CCCN1CCC(n3cc(-c4ccccc4)nn3)CC1)c(=O)n2C         21%
2  CC#CCn1c(N2CCC[C@@H](N)C2)nc2c1c(=O)n(CCCN1CCN(c3nc(-c4ccccc4)no3)CC1)c(=O)n2C         32%
3  CC#CCn1c(N2CCC[C@@H](N)C2)nc2c1c(=O)n(CCCN1CCC(c3nc(-c4ccccc4)c[nH]3)CC1)c(=O)n2C       69.4%
4  CC#CCn1c(N2CCC[C@@H](N)C2)nc2c1c(=O)n(CCCN1CCN(c3noc(-c4ccccc4)n3)CC1)c(=O)n2C       24.2%
5  CC#CCn1c(N2CCC[C@@H](N)C2)nc2c1c(=O)n(CCCN1CCN(c3nc(-c4ccccc4)cs3)CC1)c(=O)n2C       68.3%

----------
- PROTOCOL_TEXT: Elimination half life in ICR mouse plasma at 2 mg/kg, iv measured up to 24 hrs
- Type: ADME, organism-based
- CONDITION_SET: read-out: beta t1/2 (converted)
TEST_READOUT: half-life (h)

> print(dat)
                            chemical.smiles  test.readout  result.units  meas.value
1  CC#CCn1c(N2CCC[C@@H](N)C2)nc2c1c(=O)n(CCCN1CCN(c3nc(-c4ccccc4)no3)CC1)c(=O)n2C     half-life             h        1.64

----------
The molecules listed here are annotated with their Activity.
- TESTED_ON: Glucose-dependent insulinotropic receptor (Homo sapiens)
- PROTOCOL_TEXT: Agonist activity at CREB-LBD and Gal4-DBD fused recombinant human GPR119 expressed in HEK293 cells at 1 uM by firefly luciferase assay relative to AR231453
- Assay type: functional, cell-based
- CONDITION_SET: filed as agonist
TEST_READOUT: Activity (%)

> print(dat)
                             chemical.smiles  test.readout  result.units  meas.value
 1  CC#CCn1c(N2CCC[C@@H](N)C2)nc2c1c(=O)n(CCCN1CCN(c3ncc(OC)cn3)CC1)c(=O)n2C      Activity             %          79
 2  CC#CCn1c(N2CCC[C@@H](N)C2)nc2c1c(=O)n(CCCN1CCC(c3ncc(-c4ccccc4)o3)CC1)c(=O)n2C      Activity             %          80
 3  CC#CCn1c(N2CCC[C@@H](N)C2)nc2c1c(=O)n(CCCN1CCC(c3nc(-c4ccccc4)cs3)CC1)c(=O)n2C      Activity             %          83
 4  CC#CCn1c(N2CCC[C@@H](N)C2)nc2c1c(=O)n(CCCN1CCC(c3nc(-c4ccccc4)c[nH]3)CC1)c(=O)n2C      Activity             %          65
 5  CC#CCn1c(N2CCC[C@@H](N)C2)nc2c1c(=O)n(CCCN1CCN(c3noc(-c4ccccc4)n3)CC1)c(=O)n2C      Activity             %          89
 6  CC#CCn1c(N2CCC[C@@H](N)C2)nc2c1c(=O)n(CCCN1CCC(c3cc(-c4ccccc4)on3)CC1)c(=O)n2C      Activity             %          49
 7  CC#CCn1c(N2CCC[C@@H](N)C2)nc2c1c(=O)n(CCCN1CCC(c3nc(-c4ccccc4)no3)CC1)c(=O)n2C      Activity             %          55
 8  CC#CCn1c(N2CCC[C@@H](N)C2)nc2c1c(=O)n(CCCN1CCC(c3nnnn3-c3ccccc3)CC1)c(=O)n2C      Activity             %          53
 9  CC(C)c1noc(C2CCN(c3ncnc(Nc4ccc(S(C)(=O)=O)cc4F)c3[N+](=O)[O-])CC2)n1      Activity             %         100
10  CC#CCn1c(N2CCC[C@@H](N)C2)nc2c1c(=O)n(CCCN1CCN(c3ncc(C)cn3)CC1)c(=O)n2C      Activity             %          60
11  CC#CCn1c(N2CCC[C@@H](N)C2)nc2c1c(=O)n(CCCN1CCC(n3cc(-c4ccccc4)nn3)CC1)c(=O)n2C      Activity             %          47
12  CC#CCn1c(N2CCC[C@@H](N)C2)nc2c1c(=O)n(CCCN1CCN(c3ncc(F)cn3)CC1)c(=O)n2C      Activity             %          78
13  CC#CCn1c(N2CCC[C@@H](N)C2)nc2c1c(=O)n(CCCN1CCN(c3ncc(CC)cn3)CC1)c(=O)n2C      Activity             %          85
14  CC#CCn1c(N2CCC[C@@H](N)C2)nc2c1c(=O)n(CCCN1CCN(c3nc(-c4ccccc4)ns3)CC1)c(=O)n2C      Activity             %          81
15  CC#CCn1c(N2CCC[C@@H](N)C2)nc2c1c(=O)n(CCCN1CCN(c3cc(C)nn3-c3ccccc3)CC1)c(=O)n2C      Activity             %          42

Reference source for all entries: ChEMBL document CHEMBL4680154
